Ref: patent US20150361176A1

Subject Of Test: T1, recombinant human TGF-β RII/Fc chimera protein (human, UniProt P37173 24-159)
T1 construct: range 24-159; Made in HEK-F cells; Biotinylated where it was put on SA chips, otherwise captured by anti-human IgG; also called human TGFbRII/Fc; hRII-Fc; not shown: Fc region of human IgG1
Experiment Notes: SPR Biacore, purified dAb; antigen taken as human TGF-β RII/Fc
# maps each entry to its koff
Quantity Measured: koff (s⁻¹)

DOM23h-843-13 (VHH, human VH dAb, error-prone matured; expressed from pDOM13, tag not described) VHH: EVQLLESGGGLVQPGGSLRLSCAASGFTFDQDRMWWVRQAPGKGLEWVSAIESGGHRTYYADSVKGRFTISRDNSKNTLYLQMNSLRAEDTAVYYCANQNKSGRSGFDYWGQGTLVTVSS; 0.0211
DOM23h-855-21 (VHH, human VH dAb, error-prone matured; expressed from pDOM13, tag not described) VHH: EVQLLESGGGLVQPGGSLRLSCAASGFTFENTSMGWVRQAPGKGLEWVSRIDPKGSHTYYTDSVKGRFTISRDNSKNTLYLQMNSLRAEDTAVYYCAKQRELGKSYFDYWGQGTLVTVSS; 0.0336
DOM23h-843 (VHH, human VH domain antibody (dAb), naive lead; parent of DOM23h-843-13; not shown: C-terminal FLAG tag from vector pDOM10) VHH: EVQLLESGGGLVQPGGSLRLSCAASGFTFDQDRMWWVRQAPGKGLEWVSAIESGGHRTYYADSVKGRFTISRDNSKNTLYLQMNSLRAEDTAVYYCAKQNESGRSGFDYWGQGTLVTVSS; 0.343
DOM23h-855 (VHH, human VH domain antibody (dAb), naive lead; parent of DOM23h-855-21; not shown: C-terminal FLAG tag from vector pDOM10) VHH: EVQLLESGGGLVQPGGSLRLSCAASGFTFENTSMGWVRQAPGKGLEWVSRIDPKGSHTYYADSVKGRFTISRDNSKNTLYLQMNSLRAEDTAVYYCAKQRELGKSHFDYWGQGTLVTVSS; 0.315
DOM23h-439-20 (VHH, human VH dAb, error-prone matured; expressed from pDOM13, tag not described) VHH: EVQLLESGGGLVQPGGSLRLSCAASGFTFGTEQMWWVRQAPGKGLEFVSRIDSPGGRTYYADSVKGRFTISRDNSKNTLYLQMNSLRAEDTAVYYCAKRHAAGVSGTYFDYWGQGTLVTVSS; 0.00354
DOM23h-439 (VHH) VHH: EVQLLESGGGLVQPGGSLRLSCAASGFTFGTEQMWWVRQAPGKGLEWVSRIDSPGGRTYYADSVKGRFTISRDNSKNTLYLQMNSLRAEDTAVYYCAKRHAAGVSGTYFDYWGQGTLVTVSS; 0.0502
